- System: 855422-203-R-J1-PDC complex spheroid viability
- method: Anticancer human tumor 855422-203-R-J1-PDC patient-derived bladder carcinoma cell line growth inhibition [POLQ]
- test.parameters: second compound 1 µM; first compound 3.16 µM; active compounds read low
viability, T/C listing for selected compounds.

compound: CNCc1ccc(-c2[nH]c3cc(F)cc4c3c2CCNC4=O)cc1 + Nc1ccc(C#CCN(C(=O)Cc2ncc(C(F)(F)F)cc2C(F)(F)F)c2ccc(F)cc2)nn1
unit.info: %
viability, T/C: 118

compound: Nc1ccn(C2OC(CO)C(O)C2(F)F)c(=O)n1 (stereo not given) + Nc1ccc(C#CCN(C(=O)Cc2ncc(C(F)(F)F)cc2C(F)(F)F)c2ccc(F)cc2)nn1
unit.info: %
viability, T/C: 11.3

compound: CC1COCCN1c1cc(-c2ccnn2C)c2ccnc(-c3ccn[nH]3)c2n1 (stereo not given) + Nc1ccc(C#CCN(C(=O)Cc2ncc(C(F)(F)F)cc2C(F)(F)F)c2ccc(F)cc2)nn1
unit.info: %
viability, T/C: 12.6

compound: O=C(c1cc(Cc2n[nH]c(=O)c3ccccc23)ccc1F)N1CCN(C(=O)C2CC2)CC1 + Nc1ccc(C#CCN(C(=O)Cc2ncc(C(F)(F)F)cc2C(F)(F)F)c2ccc(F)cc2)nn1
unit.info: %
viability, T/C: 121

compound: C=CC(=O)N1CCN(c2nc(=O)n(-c3c(C)ccnc3C(C)C)c3nc(-c4c(O)cccc4F)c(F)cc23)C(C)C1 (stereo not given) + Cc1cccc(N(C)C(=O)C2C(O)CCN2c2nc(C)cc(C(F)(F)F)c2C#N)c1
unit.info: %
viability, T/C: 133

compound: O=c1[nH]cc(F)c(=O)[nH]1 + Nc1ccc(C#CCN(C(=O)Cc2ncc(C(F)(F)F)cc2C(F)(F)F)c2ccc(F)cc2)nn1
unit.info: %
viability, T/C: 46.2

compound: Nc1ccn(C2OC(CO)C(O)C2(F)F)c(=O)n1 (stereo not given) + COC1C(OC(N)=O)C(O)C(Oc2ccc3c(O)c(NC(=O)c4ccc(O)c(CC=C(C)C)c4)c(=O)oc3c2C)OC1(C)C
unit.info: %
viability, T/C: 6.93

compound: COc1cc2cc(C(=O)CCC(=O)O)sc2cc1OC + Nc1ccc(C#CCN(C(=O)Cc2ncc(C(F)(F)F)cc2C(F)(F)F)c2ccc(F)cc2)nn1
unit.info: %
viability, T/C: 97.3

compound: CC(C)n1c(=O)n(C)c2cnc3cc(F)c(-c4ccc(OCCCN5CCCCC5)nc4)cc3c21 + COC1C(OC(N)=O)C(O)C(Oc2ccc3c(O)c(NC(=O)c4ccc(O)c(CC=C(C)C)c4)c(=O)oc3c2C)OC1(C)C
unit.info: %
viability, T/C: 81.2

compound: C#Cc1c(F)ccc2cc(O)cc(-c3ncc4c(N5CC6CCC(C5)N6)nc(OCC56CCCN5CC(F)C6)nc4c3F)c12 (stereo not given) + Cc1cccc(N(C)C(=O)C2C(O)CCN2c2nc(C)cc(C(F)(F)F)c2C#N)c1
unit.info: %
viability, T/C: 111

compound: C#Cc1c(F)ccc2cc(O)cc(-c3ncc4c(N5CC6CCC(C5)N6)nc(OCC56CCCN5CC(F)C6)nc4c3F)c12 (stereo not given) + Nc1ccc(C#CCN(C(=O)Cc2ncc(C(F)(F)F)cc2C(F)(F)F)c2ccc(F)cc2)nn1
unit.info: %
viability, T/C: 113

compound: COc1cc(C2c3cc4c(cc3C(OC3OC5COC(C)OC5C(O)C3O)C3COC(=O)C23)OCO4)cc(OC)c1O (stereo not given) + COC1C(OC(N)=O)C(O)C(Oc2ccc3c(O)c(NC(=O)c4ccc(O)c(CC=C(C)C)c4)c(=O)oc3c2C)OC1(C)C
unit.info: %
viability, T/C: 7.12

compound: CC1COCCN1c1cc(-c2ccnn2C)c2ccnc(-c3ccn[nH]3)c2n1 (stereo not given) + COC1C(OC(N)=O)C(O)C(Oc2ccc3c(O)c(NC(=O)c4ccc(O)c(CC=C(C)C)c4)c(=O)oc3c2C)OC1(C)C
unit.info: %
viability, T/C: 8.72

compound: C=CC(=O)N1CCN(c2nc(=O)n(-c3c(C)ccnc3C(C)C)c3nc(-c4c(O)cccc4F)c(F)cc23)C(C)C1 (stereo not given) + COC1C(OC(N)=O)C(O)C(Oc2ccc3c(O)c(NC(=O)c4ccc(O)c(CC=C(C)C)c4)c(=O)oc3c2C)OC1(C)C
unit.info: %
viability, T/C: 121

compound: CC1COCCN1c1cc(-c2ccnn2C)c2ccnc(-c3ccn[nH]3)c2n1 (stereo not given) + Cc1cccc(N(C)C(=O)C2C(O)CCN2c2nc(C)cc(C(F)(F)F)c2C#N)c1
unit.info: %
viability, T/C: 8.35

* * *

- Test system: 855422-203-R-J1-PDC complex spheroid viability
- method: Anticancer human tumor 855422-203-R-J1-PDC cell line growth inhibition [POLQ];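 further: spheroids exposed to compounds for seven days before readout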
- test.parameters: second compound 1 µM; first compound 0.0316 µM; active compounds read low
reported.property: viability, T/C (%)

compound: CC1COCCN1c1cc(C2(O)CC3CCC(C2)O3)c2cnn(-c3ccn[nH]3)c2n1 (stereo not given) + Nc1ccc(C#CCN(C(=O)Cc2ncc(C(F)(F)F)cc2C(F)(F)F)c2ccc(F)cc2)nn1
assay.system: 855422-203-R-J1-PDC complex spheroid viability
recorded.number: 104
--
compound: CC(C)n1c(=O)n(C)c2cnc3cc(F)c(-c4ccc(OCCCN5CCCCC5)nc4)cc3c21 + COC1C(OC(N)=O)C(O)C(Oc2ccc3c(O)c(NC(=O)c4ccc(O)c(CC=C(C)C)c4)c(=O)oc3c2C)OC1(C)C
assay.system: 855422-203-R-J1-PDC complex spheroid viability
recorded.number: 104
--
compound: CCCS(=O)(=O)Nc1ccc(F)c(C(=O)c2c[nH]c3ncc(-c4ccc(Cl)cc4)cc23)c1F + COC1C(OC(N)=O)C(O)C(Oc2ccc3c(O)c(NC(=O)c4ccc(O)c(CC=C(C)C)c4)c(=O)oc3c2C)OC1(C)C
assay.system: 855422-203-R-J1-PDC complex spheroid viability
recorded.number: 119
--
compound: Nc1ccn(C2OC(CO)C(O)C2(F)F)c(=O)n1 (stereo not given) + Cc1cccc(N(C)C(=O)C2C(O)CCN2c2nc(C)cc(C(F)(F)F)c2C#N)c1
assay.system: 855422-203-R-J1-PDC complex spheroid viability
recorded.number: 83.7
--
compound: C=CC(=O)N1CCN(c2nc(=O)n(-c3c(C)ccnc3C(C)C)c3nc(-c4c(O)cccc4F)c(F)cc23)C(C)C1 (stereo not given) + Nc1ccc(C#CCN(C(=O)Cc2ncc(C(F)(F)F)cc2C(F)(F)F)c2ccc(F)cc2)nn1
assay.system: 855422-203-R-J1-PDC complex spheroid viability
recorded.number: 99.4

* * *

- System: 855422-203-R-J1-PDC complex spheroid viability
- method: Anticancer human tumor 855422-203-R-J1-PDC cell line growth inhibition [POLQ];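 further: spheroids exposed to compounds for seven days before readout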
- test.parameters: second compound 0.0316 µM; first compound 0.1 µM; active compounds read low
reported.property: viability, T/C (%)

compound: COc1cccc(OCCCN)c1-c1cc(Nc2cnc(C#N)cn2)n[nH]1 + Nc1ccc(C#CCN(C(=O)Cc2ncc(C(F)(F)F)cc2C(F)(F)F)c2ccc(F)cc2)nn1
reported.property: viability, T/C
recorded.number: 11.9
--
compound: CC[C@@]1(O)C(=O)OCc2c1cc1n(c2=O)Cc2cc3c(CN(C)C)c(O)ccc3nc2-1 + Nc1ccc(C#CCN(C(=O)Cc2ncc(C(F)(F)F)cc2C(F)(F)F)c2ccc(F)cc2)nn1
reported.property: viability, T/C
recorded.number: 16.9
--
compound: O=C(Nc1ccc(O)c(NS(=O)(=O)c2ccc(F)cc2)c1)c1ccc(-c2ccccc2)cc1 + COC1C(OC(N)=O)C(O)C(Oc2ccc3c(O)c(NC(=O)c4ccc(O)c(CC=C(C)C)c4)c(=O)oc3c2C)OC1(C)C
reported.property: viability, T/C
recorded.number: 101
--
compound: O=C(Nc1ccc(O)c(NS(=O)(=O)c2ccc(F)cc2)c1)c1ccc(-c2ccccc2)cc1 + Cc1cccc(N(C)C(=O)C2C(O)CCN2c2nc(C)cc(C(F)(F)F)c2C#N)c1
reported.property: viability, T/C
recorded.number: 107
--
compound: COc1ccc([C@@H](O)c2cc(-c3ncnc4cc(N5CCOCC5)ccc34)c(F)cc2Cl)nn1 + Nc1ccc(C#CCN(C(=O)Cc2ncc(C(F)(F)F)cc2C(F)(F)F)c2ccc(F)cc2)nn1
reported.property: viability, T/C
recorded.number: 105
--
compound: CC1COCCN1c1cc(C2(S(C)(=N)=O)CC2)nc(-c2ccnc3[nH]ccc23)n1 (stereo unspecified) + Nc1ccc(C#CCN(C(=O)Cc2ncc(C(F)(F)F)cc2C(F)(F)F)c2ccc(F)cc2)nn1
reported.property: viability, T/C
recorded.number: 98.9
--
compound: CC(C)n1c(=O)n(C)c2cnc3cc(F)c(-c4ccc(OCCCN5CCCCC5)nc4)cc3c21 + Nc1ccc(C#CCN(C(=O)Cc2ncc(C(F)(F)F)cc2C(F)(F)F)c2ccc(F)cc2)nn1
reported.property: viability, T/C
recorded.number: 123
--
compound: C=CCn1c(=O)c2cnc(Nc3ccc(N4CCN(C)CC4)cc3)nc2n1-c1cccc(C(C)(C)O)n1 + Nc1ccc(C#CCN(C(=O)Cc2ncc(C(F)(F)F)cc2C(F)(F)F)c2ccc(F)cc2)nn1
reported.property: viability, T/C
recorded.number: 85.5
--
compound: COc1cccc(OCCCN)c1-c1cc(Nc2cnc(C#N)cn2)n[nH]1 + Cc1cccc(N(C)C(=O)C2C(O)CCN2c2nc(C)cc(C(F)(F)F)c2C#N)c1
reported.property: viability, T/C
recorded.number: 11.9
--
compound: Cn1ncnc1[C@H]1c2n[nH]c(=O)c3cc(F)cc(c23)N[C@@H]1c1ccc(F)cc1 + Cc1cccc(N(C)C(=O)C2C(O)CCN2c2nc(C)cc(C(F)(F)F)c2C#N)c1
reported.property: viability, T/C
recorded.number: 103
--
compound: CC1COCCN1c1cc(C2(S(C)(=N)=O)CC2)nc(-c2ccnc3[nH]ccc23)n1 (stereo unspecified) + Cc1cccc(N(C)C(=O)C2C(O)CCN2c2nc(C)cc(C(F)(F)F)c2C#N)c1
reported.property: viability, T/C
recorded.number: 97.3
